# Assayed target: CC-SPRY (Homo sapiens)
# Construct: coiled-coil plus SPRY; E. coli; GFP-labelled for MST; dimer
# Sequence (Q6ZMU5 122-477): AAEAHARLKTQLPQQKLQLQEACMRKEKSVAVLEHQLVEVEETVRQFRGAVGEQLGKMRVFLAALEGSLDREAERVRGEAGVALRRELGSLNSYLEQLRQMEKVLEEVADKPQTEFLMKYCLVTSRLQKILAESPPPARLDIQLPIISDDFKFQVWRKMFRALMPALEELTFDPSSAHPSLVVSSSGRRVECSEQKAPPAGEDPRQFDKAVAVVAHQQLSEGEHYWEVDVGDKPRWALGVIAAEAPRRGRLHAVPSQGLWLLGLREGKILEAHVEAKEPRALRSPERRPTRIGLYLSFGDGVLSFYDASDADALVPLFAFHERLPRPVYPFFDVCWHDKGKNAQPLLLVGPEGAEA
# Experiment notes: microscale thermophoresis
# Conditions: 50 mM Tris pH 8.0, 80 mM NaCl, 0.05% Tween 20, 0.3 mM TCEP; room temperature; GFP-labelled protein
pKd: −log10 of the molar value.

{"columns": ["Input smiles", "pKd"],
 "data": [
  ["N[C@@H](COP(=O)(O)O)C(=O)O", "~5.00"]
]}

###

# Assayed target: TRIM72 (full-length; also MG53) (Homo sapiens, UniProt Q6ZMU5, R169A/R180A/R198A)
# Construct: full-length residues 2-477; E. coli Rosetta (DE3), His-Sumo cut by Ulp1; GFP-labelled for MST, FLAG-tagged for PIP-Strips; dimer
# Sequence (Q6ZMU5 2-477 R169A/R180A/R198A): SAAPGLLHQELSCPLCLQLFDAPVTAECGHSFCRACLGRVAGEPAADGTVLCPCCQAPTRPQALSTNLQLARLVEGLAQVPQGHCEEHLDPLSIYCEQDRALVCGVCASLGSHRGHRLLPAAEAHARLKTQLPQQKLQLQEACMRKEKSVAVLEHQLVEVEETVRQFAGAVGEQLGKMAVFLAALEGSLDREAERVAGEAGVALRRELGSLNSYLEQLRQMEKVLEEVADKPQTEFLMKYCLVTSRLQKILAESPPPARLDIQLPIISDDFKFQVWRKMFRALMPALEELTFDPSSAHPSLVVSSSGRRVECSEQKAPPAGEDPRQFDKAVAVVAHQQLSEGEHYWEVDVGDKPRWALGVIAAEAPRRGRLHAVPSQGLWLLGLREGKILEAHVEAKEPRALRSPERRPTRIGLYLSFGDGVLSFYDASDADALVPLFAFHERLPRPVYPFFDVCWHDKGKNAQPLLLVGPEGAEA
# Experiment notes: microscale thermophoresis

{"columns": ["Input smiles", "Kd"],
 "data": [
  ["N[C@@H](COP(=O)(O)O)C(=O)O", "~38 µM"]
]}
